Data credit: ChEMBL document CHEMBL2163247

Could you please report measured pKi for the items listed next?
- tgt: Cyclin-dependent kinase 2/cyclin E (Homo sapiens, UniProt P24941)
- assay.overview: Inhibition of CDK2/Cyclin E
Note: pKi values are expressed as the negative base-10 logarithm of concentration in M.

Data request: Lab note: Cyclin-dependent kinase 2/cyclin E (Homo sapiens, UniProt P24941) assay, enter pKi for `Oc1ccc2oc3ncc(O)c(-c4ccccc4)c3c2c1` here
Data returned: 6.22

Data request: Lab note: Cyclin-dependent kinase 2/cyclin E (Homo sapiens, UniProt P24941) assay, enter pKi for `Oc1ccc2oc3ncc(OCc4ccccc4)c(-c4ccccc4)c3c2c1` here
Data returned: 5.19

Data request: Lab note: Cyclin-dependent kinase 2/cyclin E (Homo sapiens, UniProt P24941) assay, enter pKi for `COc1cnc2oc3ccc(O)cc3c2c1-c1ccccc1` here
Data returned: 4.62
